target: Tyrosine-protein kinase CSK (Homo sapiens)
Sequence (P41240 whole entry): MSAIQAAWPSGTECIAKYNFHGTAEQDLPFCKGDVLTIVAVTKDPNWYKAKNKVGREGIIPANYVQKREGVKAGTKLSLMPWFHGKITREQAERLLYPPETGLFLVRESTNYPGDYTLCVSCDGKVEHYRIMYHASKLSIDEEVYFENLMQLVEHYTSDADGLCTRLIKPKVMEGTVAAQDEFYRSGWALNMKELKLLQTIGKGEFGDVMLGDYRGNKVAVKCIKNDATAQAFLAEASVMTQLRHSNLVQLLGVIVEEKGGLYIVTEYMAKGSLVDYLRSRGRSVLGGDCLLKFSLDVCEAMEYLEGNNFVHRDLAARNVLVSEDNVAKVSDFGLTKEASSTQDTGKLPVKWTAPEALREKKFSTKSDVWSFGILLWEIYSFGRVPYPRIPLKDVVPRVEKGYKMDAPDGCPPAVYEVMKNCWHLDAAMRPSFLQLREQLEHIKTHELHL
Entries and their pIC50
Interpret pIC50 as the negative base-10 log of the concentration measured in mol/L.

>>> df
                               input_smiles  measured_value
0  CC1(C)OC(=O)N2C[C@H](c3nc(-c4ccc(C(=O)Nc5cc(C(F)(F)F)ccn5)cc4)c4c(N)nccn34)CC[C@H]21            6.46

Consider the record given below.
Challenge: Record request: pIC50 value, item Nc1nccn2c([C@@H]3CC[C@H]4COC(=O)N4C3)nc(-c3ccc(C(=O)Nc4cc(C(F)(F)F)ccn4)cc3)c12
Response given: 6.54

====

The next entries give measured pIC50 for Tyrosine-protein kinase Yes (Homo sapiens, UniProt P07947).
Interpret pIC50 as the negative base-10 log of the concentration measured in mol/L.

In [3]: df
Out[3]:
                               input_smiles  attribute_measured  measured_value
0  Nc1nccn2c([C@@H]3CC[C@H]4COC(=O)N4C3)nc(-c3ccc(C(=O)Nc4cc(C(F)(F)F)ccn4)cc3)c12               pIC50            7.46

Consider the record given below.
Challenge: # value lookup — system Tyrosine-protein kinase Yes (Homo sapiens, UniProt P07947), readout pIC50, item COc1cc(C(=O)Nc2cc(C(F)(F)F)ccn2)ccc1-c1nc([C@@H]2CC[C@H]3CCC(=O)N3C2)n2ccnc(N)c12
Response given: 7.27

====

The next entries give measured IC50 for Tyrosine-protein kinase Lck (Homo sapiens).
Give the number; µM is assumed, so skip it.

                               input_smiles  attribute_measured  measured_value
0  Nc1nccn2c([C@@H]3CC[C@H]4COC(=O)N4C3)nc(-c3ccc(C(=O)Nc4cc(C(F)(F)F)ccn4)cc3)c12                IC50           0.011

Challenge: Record request: IC50 value, item CC1(C)OC(=O)N2C[C@H](c3nc(-c4ccc(C(=O)Nc5cc(C(F)(F)F)ccn5)cc4)c4c(N)nccn34)CC[C@H]21
Response given: 0.013

====

The next entries give measured IC50 for Receptor tyrosine-protein kinase erbB-4 (Homo sapiens, UniProt Q15303).
Give the number; nM is assumed, so skip it.

                               input_smiles  measured_value
0  COc1cc(C(=O)Nc2cc(C(F)(F)F)ccn2)ccc1-c1nc([C@@H]2CC[C@H]3CCC(=O)N3C2)n2ccnc(N)c12             160
1  Nc1nccn2c([C@@H]3CC[C@H]4CCC(=O)N4C3)nc(-c3ccc(C(=O)Nc4cc(C(F)(F)F)ccn4)cc3)c12              24

Challenge: # value lookup — system Receptor tyrosine-protein kinase erbB-4 (Homo sapiens, UniProt Q15303), readout IC50, item Nc1nccn2c([C@@H]3CC[C@H]4COC(=O)N4C3)nc(-c3ccc(C(=O)Nc4cc(C(F)(F)F)ccn4)cc3)c12
Response given: 34

====

The next entries give measured IC50 for Tyrosine-protein kinase Fgr (Homo sapiens, UniProt P09769).
Give the number; nM is assumed, so skip it.

                               input_smiles                             tested_target  unit_descriptor  measured_value
0  COc1cc(C(=O)Nc2cc(C(F)(F)F)ccn2)ccc1-c1nc([C@@H]2CC[C@H]3CCC(=O)N3C2)n2ccnc(N)c12  Tyrosine-protein kinase Fgr (Homo sapiens, UniProt P09769)               nM              64

Challenge: # value lookup — system Tyrosine-protein kinase Fgr (Homo sapiens, UniProt P09769), readout IC50, item Nc1nccn2c([C@@H]3CC[C@H]4COC(=O)N4C3)nc(-c3ccc(C(=O)Nc4cc(C(F)(F)F)ccn4)cc3)c12
Response given: 26

====

biological target: Tyrosine-protein kinase Lyn (Homo sapiens, UniProt P07948); experiment: Inhibition of LYNB (unknown origin)
Sequence (P07948 whole entry): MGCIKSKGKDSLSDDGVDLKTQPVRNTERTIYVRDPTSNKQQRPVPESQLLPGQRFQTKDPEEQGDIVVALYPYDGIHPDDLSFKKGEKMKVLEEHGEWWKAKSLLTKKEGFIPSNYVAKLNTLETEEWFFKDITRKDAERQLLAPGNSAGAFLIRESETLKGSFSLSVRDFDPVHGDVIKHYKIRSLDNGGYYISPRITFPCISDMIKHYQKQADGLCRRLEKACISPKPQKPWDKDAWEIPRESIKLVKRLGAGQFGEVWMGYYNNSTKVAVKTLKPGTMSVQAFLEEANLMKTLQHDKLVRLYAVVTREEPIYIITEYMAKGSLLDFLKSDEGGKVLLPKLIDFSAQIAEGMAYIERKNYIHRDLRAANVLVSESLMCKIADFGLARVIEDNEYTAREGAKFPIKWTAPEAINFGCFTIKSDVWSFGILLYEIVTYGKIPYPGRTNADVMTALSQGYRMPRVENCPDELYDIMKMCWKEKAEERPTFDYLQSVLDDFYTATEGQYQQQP
attribute-measured: IC50

A selection of reference data follows.
In [3]: df
Out[3]:
                               input_smiles  attribute_measured  measured_value
0  Nc1nccn2c([C@@H]3CC[C@H]4COC(=O)N4C3)nc(-c3ccc(C(=O)Nc4cc(C(F)(F)F)ccn4)cc3)c12                IC50           49 nM
1  COc1cc(C(=O)Nc2cc(C(F)(F)F)ccn2)ccc1-c1nc([C@@H]2CC[C@H]3CCC(=O)N3C2)n2ccnc(N)c12                IC50          162 nM

Consider the record given below.
Challenge: # value lookup — system Tyrosine-protein kinase Lyn (Homo sapiens, UniProt P07948), readout IC50, item Nc1nccn2c([C@@H]3CC[C@H]4CCC(=O)N4C3)nc(-c3ccc(C(=O)Nc4cc(C(F)(F)F)ccn4)cc3)c12
Response given: 20 nM

====

target: Tyrosine-protein kinase BTK (Homo sapiens, UniProt Q06187); assay: Inhibition of BTK in human whole blood assessed as reduction in cell surface CD69 expression preincubated for 1 hr followed by stimulation with anti-CD79b for 3 hrs by immunostaining analysis; assay type: tissue-based
Sequence (Q06187 whole entry): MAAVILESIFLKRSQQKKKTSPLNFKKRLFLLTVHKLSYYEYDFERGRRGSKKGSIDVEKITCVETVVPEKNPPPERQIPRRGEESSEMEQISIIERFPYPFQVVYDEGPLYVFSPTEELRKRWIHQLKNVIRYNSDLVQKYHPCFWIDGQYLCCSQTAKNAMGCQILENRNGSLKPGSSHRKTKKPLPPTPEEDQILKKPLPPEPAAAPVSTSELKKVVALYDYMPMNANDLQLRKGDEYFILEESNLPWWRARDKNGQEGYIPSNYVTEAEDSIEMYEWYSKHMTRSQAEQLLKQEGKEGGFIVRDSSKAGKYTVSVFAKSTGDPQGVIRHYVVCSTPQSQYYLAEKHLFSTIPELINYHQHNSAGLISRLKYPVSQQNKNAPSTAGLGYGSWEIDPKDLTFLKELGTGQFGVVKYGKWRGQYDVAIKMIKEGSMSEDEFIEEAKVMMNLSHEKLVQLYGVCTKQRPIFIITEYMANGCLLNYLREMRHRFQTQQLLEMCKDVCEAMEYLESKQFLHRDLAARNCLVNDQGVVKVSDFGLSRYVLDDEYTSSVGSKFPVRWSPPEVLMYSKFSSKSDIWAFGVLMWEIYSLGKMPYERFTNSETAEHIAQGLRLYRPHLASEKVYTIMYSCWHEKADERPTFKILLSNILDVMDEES
Entries and their pIC50
Interpret pIC50 as the negative base-10 log of the concentration measured in mol/L.

A selection of reference data follows.
In [3]: df
Out[3]:
                               input_smiles                             tested_target  attribute_measured  measured_value
0  Nc1nccn2c([C@@H]3CC[C@H]4COCC(=O)N4C3)nc(-c3ccc(C(=O)Nc4cc(C(F)(F)F)ccn4)cc3F)c12  Tyrosine-protein kinase BTK (Homo sapiens, UniProt Q06187)               pIC50            7.11
1  Nc1nccn2c([C@@H]3CC[C@H]4CCC(=O)N4C3)nc(-c3ccc(C(=O)Nc4cc(C(F)(F)F)ccn4)cc3OC(F)F)c12  Tyrosine-protein kinase BTK (Homo sapiens, UniProt Q06187)               pIC50            6.38
2  Nc1nccn2c([C@@H]3CC[C@H]4CCC(=O)N4C3)nc(-c3ccc(C(=O)Nc4cc(C(F)(F)F)ccn4)cc3F)c12  Tyrosine-protein kinase BTK (Homo sapiens, UniProt Q06187)               pIC50            7.00
3  Nc1nccn2c([C@@H]3CC[C@H]4CCC(=O)N4C3)nc(-c3ccc(C(=O)Nc4cc(C(F)(F)F)ccn4)cc3)c12  Tyrosine-protein kinase BTK (Homo sapiens, UniProt Q06187)               pIC50            7.62
4  CN1CC(=O)N2C[C@H](c3nc(-c4ccc(C(=O)Nc5cc(C(F)(F)F)ccn5)cc4F)c4c(N)nccn34)CC[C@H]2C1  Tyrosine-protein kinase BTK (Homo sapiens, UniProt Q06187)               pIC50            6.98
5  CCOc1cc(C(=O)Nc2cc(C(F)(F)F)ccn2)ccc1-c1nc([C@@H]2CC[C@H]3CCC(=O)N3C2)n2ccnc(N)c12  Tyrosine-protein kinase BTK (Homo sapiens, UniProt Q06187)               pIC50            7.04
6  C[C@H]1OC(=O)N2C[C@H](c3nc(-c4ccc(C(=O)Nc5cc(C(F)(F)F)ccn5)cc4)c4c(N)nccn34)CC[C@@H]12  Tyrosine-protein kinase BTK (Homo sapiens, UniProt Q06187)               pIC50            7.20
7  Nc1nccn2c([C@@H]3CC[C@H]4COC(=O)N4C3)nc(-c3ccc(C(=O)Nc4cc(C(F)(F)F)ccn4)cc3)c12  Tyrosine-protein kinase BTK (Homo sapiens, UniProt Q06187)               pIC50            7.44

Challenge: Record request: pIC50 value, item CC1(C)OC(=O)N2C[C@H](c3nc(-c4ccc(C(=O)Nc5cc(C(F)(F)F)ccn5)cc4)c4c(N)nccn34)CC[C@H]21
Response given: 7.24

Challenge: Record request: pIC50 value, item Nc1nccn2c([C@@H]3CC[C@H]4CCCN4C3)nc(-c3ccc(C(=O)Nc4cc(C(F)(F)F)ccn4)cc3)c12
Response given: 6.69

Challenge: Record request: pIC50 value, item Nc1nccn2c([C@H]3CN4C(=O)CC[C@@H]4CO3)nc(-c3ccc(C(=O)Nc4cc(C(F)(F)F)ccn4)cc3)c12
Response given: 6.58

Challenge: Record request: pIC50 value, item C[C@@H]1OC(=O)N2C[C@H](c3nc(-c4ccc(C(=O)Nc5cc(C(F)(F)F)ccn5)cc4)c4c(N)nccn34)CC[C@@H]12
Response given: 7.07

These measurements were taken from ChEMBL document CHEMBL4725309.
